- System: Acinetobacter baumannii
- method: Antibacterial activity against OXA-23-producing Acinetobacter baumannii SA-Rd-KAMC-083 assessed as reduction in […] growth at 0.01 to 30 uM incubated for 24 hrs by spectrophotometry based broth microdilution assay
- Type: functional, organism-based
Activity calls are given as the source filed them. The rule behind the calls is not given here.
experimental endpoint: Activity

>>> experimental_result("CC(C)[C@H]1CC[C@@](O)(COC(=O)/C(=C/[C@@H]2[C@@H](C(C)C)CC[C@@](O)(COC(=O)/C(=C/[C@H]3C4=C(CC[C@@H]3C(C)C)COC4=O)CO)[C@H]2C(=O)O)CO)[C@H]2C(=O)OCC(C(=O)O)=C[C@H]12")
"inactive"
>>> experimental_result("CC(C)[C@H]1CC[C@@]2(OC(=O)/C(=C/[C@H]3C=C(CO)CC[C@@H]3C(C)C)CO)COC(=O)[C@H]2[C@@H]1/C=C(\\CO)C(=O)O")
"inactive"
>>> experimental_result("CC(C)[C@H]1CC[C@@](O)(COC(=O)/C(=C/[C@H]2C=C(CO)CC[C@@H]2C(C)C)CO)[C@H]2C(=O)OCC(C(=O)O)=C[C@H]12")
"inactive"
>>> experimental_result("CC(C)[C@H]1CC[C@@](O)(COC(=O)/C(=C/[C@@H]2[C@@H](C(C)C)CC[C@@]3(O)COC(=O)[C@@H]23)CO)[C@@H](C(=O)O)[C@@H]1/C=C(\\CO)C(=O)O[C@@]12CC[C@H](C(C)C)[C@@H](/C=C(\\CO)C(=O)O)[C@@H]1C(=O)OC2")
"inactive"
>>> experimental_result("CC(C)[C@H]1CC[C@@](O)(COC(=O)C2=C[C@@H]3[C@@H](C(C)C)CC[C@@](O)(COC(=O)/C(=C/[C@H]4C5=C(CC[C@@H]4C(C)C)COC5=O)CO)[C@H]3C(=O)OC2)[C@H]2C(=O)OCC(C(=O)O)=C[C@H]12")
"inactive"
>>> experimental_result("CC(C)[C@H]1CC[C@@](O)(COC(=O)C2=C[C@H]3[C@@H](OC2)[C@H](CO)CC[C@@H]3C(C)C)[C@H]2C(=O)OCC(C(=O)O)=C[C@H]12")
"inactive"
>>> experimental_result("CC(C)[C@H]1CC[C@@](O)(COC(=O)C2=C[C@@H]3[C@@H](C(C)C)CC[C@@](O)(COC(=O)/C(=C/[C@@H]4[C@@H](C(C)C)CC[C@@]5(O)COC(=O)[C@@H]45)CO)[C@H]3C(=O)OC2)[C@H]2C(=O)OCC(C(=O)O)=C[C@H]12")
"inactive"
>>> experimental_result("CC(C)[C@H]1CC[C@@](O)(COC(=O)/C(=C/[C@H]2C3=C(CC[C@@H]2C(C)C)COC3=O)CO)[C@H]2C(=O)OCC(C(=O)O)=C[C@H]12")
"inactive"
>>> experimental_result("CC(C)[C@H]1CC[C@@](O)(COC(=O)C2=C[C@@H]3[C@@H](C(C)C)CC[C@@](O)(COC(=O)/C(=C/[C@H]4C=C(CO)CC[C@@H]4C(C)C)CO)[C@H]3C(=O)OC2)[C@H]2C(=O)OCC(C(=O)O)=C[C@H]12")
"inactive"
>>> experimental_result("CC(C)[C@H]1CC[C@@](O)(COC(=O)/C(=C/[C@@H]2[C@@H](C(C)C)CC[C@@]3(O)COC(=O)[C@@H]23)CO)[C@H]2C(=O)OCC(C(=O)O)=C[C@H]12")
"inactive"
>>> experimental_result("CC(C)[C@H]1CC[C@@](O)(COC(=O)/C(=C/[C@@H]2[C@@H](C(C)C)CC[C@@]3(OC(=O)/C(=C/[C@H]4C=C(CO)CC[C@@H]4C(C)C)CO)COC(=O)[C@@H]23)CO)[C@H]2C(=O)OCC(C(=O)O)=C[C@H]12")
"inactive"
